target.entity: VHL (Homo sapiens, UniProt P40337)
Construct: expressed in transfected cells
Sequence (P40337 whole entry): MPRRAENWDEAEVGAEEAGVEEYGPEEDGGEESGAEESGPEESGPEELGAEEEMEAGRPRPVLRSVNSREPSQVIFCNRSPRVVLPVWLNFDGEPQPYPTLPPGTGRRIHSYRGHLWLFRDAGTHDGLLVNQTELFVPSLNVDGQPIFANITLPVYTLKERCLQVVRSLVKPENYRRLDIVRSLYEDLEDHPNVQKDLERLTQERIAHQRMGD
run.description: VHL HEK-293 BRET Assay (VHL NanoBRET Target Engagement Assay)
Assay type: cell-based
measurement.setup: HEK 293 RT VHL-NanoLuc stable cells; read-out: IC50
readout.name: IC50 (nM)

Which IC50 is listed for CC(C)(NC(=O)[C@@H]1C[C@@H](O)CN1C(=O)[C@@H](n1cc(C2CC2)nn1)C(C)(C)C)C(=O)Nc1ccccc1 [Compound 480] ?
135

[A] CC(Cc1ccc(Br)cc1F)NC(=O)[C@@H]1C[C@@H](O)CN1C(=O)[C@@H](n1cc(C2CC2)nn1)C(C)(C)C (stereo partly drawn) [Compound 556]
[B] CNC(=O)[C@@H]1C[C@@H](O)CN1C(=O)[C@@H](n1cc(-c2cnc(F)cc2C)nn1)C(C)(C)C [Compound 792]
Higher IC50 between A and B ? Lab note: record the label of whichever item you select.
B

[1] CC(C)(C)[C@@H](C(=O)N1C[C@H](O)C[C@H]1C(=O)NC1CCN(c2ccc(Cl)c(Cl)c2)C1)n1cc(C2CC2)nn1 (stereo partly drawn) [Compound 463]
[2] CNC(=O)[C@@H]1C[C@@H](O)CN1C(=O)[C@@H](n1cc(COc2ccccc2F)nn1)C(C)(C)C [Compound 729]
Higher IC50 between 1 and 2 ? Lab note: record the label of whichever item you select.
1
(1: 3680 nM, 2: 960 nM)

---

System: NCI-H23
run.description: Cell Viability Assay (CellTiter-Glo)
Type: cell-based
measurement.setup: 10 μM, 5 days
readout.name: Normalized viability % DMSO (% DMSO)
Hi! Could you send only the number? It should be in % DMSO, unit omitted.

Sample answers from the record:
Which Normalized viability % DMSO is listed for Cc1ncsc1-c1ccc(CNC(=O)[C@@H]2C[C@@H](O)CN2C(=O)[C@@H](n2cc(C3CC3)nn2)C(C)(C)C)cc1 [Compound 288] ?
6.7

Entry CC(C)(C)[C@@H](C(=O)N1C[C@H](O)C[C@H]1C(=O)NCCC1(O)CN(C(c2ccccc2)c2ccccc2)C1)n1cc(C2CC2)nn1 [Compound 449] please
43.4

// moving on: another record for Normalized viability % DMSO
Which Normalized viability % DMSO is listed for CC(C)(C)[C@@H](C(=O)N1C[C@H](O)C[C@H]1C(=O)NC1CCc2c(Cl)cc(Cl)cc21)n1cc(C2CC2)nn1 (stereo partly drawn) [Compound 169] ?
39.3

---

System: CAL-120
run.description: Cell Viability Assay (CellTiter-Glo)
measurement.setup: 10 μM, 5 days
Here, each record is paired with measured Normalized viability % DMSO data.
Hi! Could you send only the number? It should be in % DMSO, unit omitted.

Which Normalized viability % DMSO is listed for Cc1ncsc1-c1ccc(CNC(=O)[C@@H]2C[C@@H](O)CN2C(=O)[C@@H](n2cc(C3CC3)nn2)C(C)(C)C)cc1 ?
31.9

Further cases:
Which Normalized viability % DMSO is listed for CC(C)(NC(=O)[C@@H]1C[C@@H](O)CN1C(=O)[C@@H](n1cc(C2CC2)nn1)C(C)(C)C)C(=O)Nc1ccccc1 ?
15.5

Entry CC(C)(C)[C@@H](C(=O)N1C[C@H](O)C[C@H]1C(=O)NC1CC12CCc1cc(Br)ccc12)n1cc(C2CC2)nn1 (stereo partly shown) please
46.4

Entry CNC(=O)[C@@H]1C[C@@H](O)CN1C(=O)[C@@H](n1cc(CN2CCC(C(=O)OC)CC2)nn1)C(C)(C)C please
18.1

Measured values drawn from patent US20230295145A1 for this set.
